Reference source: patent US8785429B2

target: JAK2 (Homo sapiens); construct: purchased Invitrogen; assay: Assay for JAK2 Inhibition (phosphorylation of FAM-labeled substrate, Caliper LC-3000); type: biochemical; details: −log10(IC50), IC50 is the molar concentration at 50% inhibition; read-out: JAK2 pIC50 (converted)
Sequence (O60674 whole entry): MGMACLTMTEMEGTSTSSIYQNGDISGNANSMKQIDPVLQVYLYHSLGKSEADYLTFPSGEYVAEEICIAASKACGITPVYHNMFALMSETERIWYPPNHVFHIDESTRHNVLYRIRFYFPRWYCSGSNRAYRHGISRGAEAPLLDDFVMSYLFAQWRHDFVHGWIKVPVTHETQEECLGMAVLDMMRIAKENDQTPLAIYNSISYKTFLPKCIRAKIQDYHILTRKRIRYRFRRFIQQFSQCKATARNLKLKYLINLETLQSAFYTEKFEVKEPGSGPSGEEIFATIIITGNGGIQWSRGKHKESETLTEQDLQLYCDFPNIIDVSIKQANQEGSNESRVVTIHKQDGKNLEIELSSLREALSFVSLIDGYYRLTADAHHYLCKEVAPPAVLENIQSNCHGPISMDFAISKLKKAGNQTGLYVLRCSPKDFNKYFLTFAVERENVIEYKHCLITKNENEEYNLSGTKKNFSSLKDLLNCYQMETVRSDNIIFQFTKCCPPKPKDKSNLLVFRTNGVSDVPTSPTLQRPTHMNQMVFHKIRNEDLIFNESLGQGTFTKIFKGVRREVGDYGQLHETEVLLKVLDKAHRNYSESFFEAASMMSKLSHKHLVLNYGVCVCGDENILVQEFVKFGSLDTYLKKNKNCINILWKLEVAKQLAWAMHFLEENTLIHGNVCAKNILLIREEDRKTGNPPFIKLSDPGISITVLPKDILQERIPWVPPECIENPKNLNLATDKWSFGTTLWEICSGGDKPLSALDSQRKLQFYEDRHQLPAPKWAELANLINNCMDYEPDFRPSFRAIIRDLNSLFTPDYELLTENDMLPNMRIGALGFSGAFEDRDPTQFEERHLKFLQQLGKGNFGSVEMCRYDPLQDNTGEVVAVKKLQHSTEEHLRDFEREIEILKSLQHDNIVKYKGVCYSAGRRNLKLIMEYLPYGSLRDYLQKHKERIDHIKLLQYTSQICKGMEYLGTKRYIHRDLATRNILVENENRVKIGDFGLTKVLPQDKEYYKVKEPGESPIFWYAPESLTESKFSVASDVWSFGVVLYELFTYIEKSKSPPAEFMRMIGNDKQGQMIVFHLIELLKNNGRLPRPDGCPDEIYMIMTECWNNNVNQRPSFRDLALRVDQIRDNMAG
measuredParameter: IC50 (nM)

The following compounds have reported results that may help.
CC(C)[C@H](C(=O)N(C)CC#N)N1Cc2c(F)cnc3[nH]cc(c23)C1=O ... 2510
CC[C@H](C(=O)NC1CCCC1)N1Cc2ccnc3[nH]cc(c23)C1=O ... 1580

A: O=C1c2ccnc3[nH]cc(c23)CN1CC1CCNC1 (centres unmarked)
B: CC[C@H](C(=O)Nc1ccccc1)N1Cc2ccnc3[nH]cc(c23)C1=O
# input // select label with min value of measured IC50 from [ A , B ] Respond using the label that marks the chosen record.
# output B

P: Cc1cnc2[nH]cc3c2c1CN([C@@H](C(=O)N1CC(C#N)C1)C(C)C)C3=O
Q: CC(C)[C@H](C(=O)N1CCC[C@H]1C#N)N1Cc2c(Cl)cnc3[nH]cc(c23)C1=O
# input Which has the smaller recorded IC50, P or Q ? Write the label of whichever entry you select.
# output P

P: CC[C@H](C(=O)N1CCC(N(C)C)C1)N1Cc2ccnc3[nH]cc(c23)C1=O (some centres unmarked)
Q: CC(C)[C@H](C(=O)N1CC(C)(C#N)C1)N1Cc2ccnc3[nH]cc(c23)C1=O
# input Given the listed records, identify the one among P and Q with higher IC50. State your choice using its label.
# output P
(P: 20000 nM, Q: 251 nM)
